Reference source for all entries: patent US20220324835A1

target: Cbl-b (Homo sapiens); assay: Cbl-b inhibition assay (Cbl-b activity assay, FRET, Biological Example 1; 100 mM NaCl, 60 nM Src kinase); format: biochemical; settings: upper bound stated in text lists; read-out: IC50 values in the Cbl-b inhibition assay of Biological Example 1
Sequence (Q13191 36-427): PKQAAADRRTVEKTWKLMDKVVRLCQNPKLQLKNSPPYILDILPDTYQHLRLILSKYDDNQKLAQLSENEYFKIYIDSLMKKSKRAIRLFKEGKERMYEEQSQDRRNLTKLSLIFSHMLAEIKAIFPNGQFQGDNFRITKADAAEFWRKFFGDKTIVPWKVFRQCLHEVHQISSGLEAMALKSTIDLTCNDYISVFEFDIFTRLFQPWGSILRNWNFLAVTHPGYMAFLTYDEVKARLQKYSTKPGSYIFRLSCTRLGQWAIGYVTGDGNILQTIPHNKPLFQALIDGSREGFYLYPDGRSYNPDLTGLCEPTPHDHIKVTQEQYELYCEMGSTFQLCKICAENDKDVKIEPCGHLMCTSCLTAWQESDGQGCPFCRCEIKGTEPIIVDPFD
pIC50: −log10 of the molar value.
experimental.readout: pIC50

Query: Indicate the recorded pIC50 value for this molecule: "Cn1cnnc1C(F)(F)[C@](C)(F)c1cccc(N2Cc3c(cc(CN4CC[C@@H](F)C4)cc3C(F)(F)F)C2=O)c1"
Reply: ≥ 7.00

Query: Could you please provide reported pIC50 for "C[C@H](Cc1nncn1C)c1cc(N[C@@H](C)CO)nc(N2Cc3c(cccc3C(F)(F)F)C2=O)c1" ? Thanks!
Reply: ≥ 6.52

Query: Given the molecule "C[C@H](Sc1nncn1C)c1cccc(NC(=O)c2cccc(-c3ccn[nH]3)c2)c1" , write its reported pIC50.
Reply: ≥ 5.00

Query: Report pIC50, nothing else, for this molecule: "Cc1cc(C(=O)Nc2cccc(C3(Cc4nocc4C)COC3)c2)nc(C2CC2)n1"
Reply: ≥ 7.00
